- protocol_description: pH stability tests
- Format: physicochemical
- run_conditions: pH 4.0, 2 days
- Protocol: This example provides the results of pH stability tests that were conducted on certain illustrative non-natural amino acids as an aid for predicting their properties for incorporation into non-natural amino acid polypeptides.
measured_parameter: pH stability

COCCOC(=O)NCCO/N=C(\C)C(=O)Nc1ccccc1 [drawing 138] yielded pH stability of <1%

COCCOCNCCO/N=C(\C)CC(=O)c1ccccc1 [drawing 139] yielded pH stability of <1%

"COCCOC(=O)NCCO/N=C(\C)CNC(=O)c1ccccc1" yielded pH stability of 8%

COCCOC(=O)NCCO/N=C(\C)C(=O)Nc1ccccc1 [drawing 134] yielded pH stability of <1%

"COCCOC(=O)NCCO/N=C1\C(=O)Nc2ccccc21" yielded pH stability of <1%

COCCOCNCCO/N=C(\C)CC(=O)c1ccccc1 [drawing 135] yielded pH stability of <1%

"COCCOC(=O)NCCO/N=C(\C)C(=O)c1ccccc1" yielded pH stability of <1%

"COCCOC(=O)NCCO/N=C(\C)COc1ccccc1" yielded pH stability of 5%
